experiment: Plasma protein binding in Sprague-Dawley rat; format: ADME, cell-free; settings: read-out: PPB (converted)
quantity_measured: fraction unbound

>>> measured("N#Cc1cc2c(cn1)[nH]c1ncc(-c3ccc(CN4CCCCC4)cc3)cc12")
0.047
>>> measured("N#Cc1cc2c(cn1)[nH]c1ncc(-c3ccc(CN4CCC5(CC4)COC5)cc3)cc12")
0.025

----------
test: Cmax in cynomolgus monkey at 2 mg/kg, po suspension at pH 6.5; assay type: ADME, organism-based, Macaca fascicularis; design: dose 2 mg/kg, route oral; details: in vivo
quantity_measured: Cmax (nM)

>>> measured("N#Cc1cc2c(cn1)[nH]c1ncc(-c3ccc(CN4CCCCC4)cc3)cc12")
44
>>> measured("N#Cc1cc2c(cn1)[nH]c1ncc(-c3ccc(CN4CCC5(CC4)COC5)cc3)cc12")
86

----------
assay: Plasma protein binding in Beagle dog; format: ADME, cell-free, Canis lupus familiaris; conditions: read-out: PPB (converted)
quantity_measured: fraction unbound

>>> measured("N#Cc1cc2c(cn1)[nH]c1ncc(-c3ccc(CN4CCCCC4)cc3)cc12")
0.132
>>> measured("N#Cc1cc2c(cn1)[nH]c1ncc(-c3ccc(CN4CCC5(CC4)COC5)cc3)cc12")
0.052

----------
test: Volume of distribution at steady state in Beagle dog at 1 mg/kg, iv solution at pH 4.5; assay type: ADME, organism-based, Canis lupus familiaris; conditions: in vivo, read-out: Vdss
// reported Vd per item
quantity_measured: Vd (L/kg)

>>> measured("N#Cc1cc2c(cn1)[nH]c1ncc(-c3ccc(CN4CCCCC4)cc3)cc12")
23.4
>>> measured("N#Cc1cc2c(cn1)[nH]c1ncc(-c3ccc(CN4CCC5(CC4)COC5)cc3)cc12")
9.63

----------
biological target: Serine/threonine-protein kinase Chk1 (Homo sapiens); assay: Inhibition of CHK1 in human HT29 cells assessed as phosphorylation of histone H3 after 24 hrs by checkpoint abrogation cellular assay
Sequence (O14757 whole entry): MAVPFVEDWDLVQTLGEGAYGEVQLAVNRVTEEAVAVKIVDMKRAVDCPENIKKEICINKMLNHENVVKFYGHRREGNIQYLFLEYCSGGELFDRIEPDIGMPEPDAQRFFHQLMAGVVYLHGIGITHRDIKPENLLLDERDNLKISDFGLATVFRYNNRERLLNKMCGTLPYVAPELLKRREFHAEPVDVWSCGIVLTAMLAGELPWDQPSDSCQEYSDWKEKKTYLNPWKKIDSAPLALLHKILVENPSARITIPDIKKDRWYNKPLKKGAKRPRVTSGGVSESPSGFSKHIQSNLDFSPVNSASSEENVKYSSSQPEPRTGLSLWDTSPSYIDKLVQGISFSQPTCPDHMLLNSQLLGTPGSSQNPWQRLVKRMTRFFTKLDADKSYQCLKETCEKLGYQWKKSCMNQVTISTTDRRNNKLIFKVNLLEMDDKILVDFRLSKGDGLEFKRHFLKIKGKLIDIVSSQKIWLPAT
pEC50: −log10 of the molar value.
// reported pEC50 per item
quantity_measured: pEC50

>>> measured("N#Cc1cc2c(cn1)[nH]c1ncc(-c3ccc(CN4CCOCC4)cc3)cc12")
6.67
>>> measured("CCN1CCc2sc(-c3cnc4[nH]c5cnc(C#N)cc5c4c3)cc2C1")
7.29
>>> measured("c1cc(-c2cc3c(cn2)[nH]c2ncc(-c4ccc(CN5CCCCC5)cc4)cc23)cnn1")
6.18
>>> measured("N#Cc1cc2c(cn1)[nH]c1ncc(-c3nc(CN4CCCCC4)cs3)cc12")
6.18

----------
experiment: AUC in Sprague-Dawley rat at 5 mg/kg, po suspension at pH 6.5; format: ADME, organism-based; details: in vivo
quantity_measured: AUC (µM·h)

>>> measured("N#Cc1cc2c(cn1)[nH]c1ncc(-c3ccc(CN4CCC5(CC4)COC5)cc3)cc12")
8.63
>>> measured("N#Cc1cc2c(cn1)[nH]c1ncc(-c3ccc(CN4CCCCC4)cc3)cc12")
6.19

----------
// reported bioavailability per item
experiment: Oral bioavailability in Beagle dog at 2 mg/kg suspension at pH 6.5; format: ADME, organism-based, Canis lupus familiaris; conditions: in vivo
quantity_measured: bioavailability (%)

>>> measured("N#Cc1cc2c(cn1)[nH]c1ncc(-c3ccc(CN4CCCCC4)cc3)cc12")
13.1
>>> measured("N#Cc1cc2c(cn1)[nH]c1ncc(-c3ccc(CN4CCC5(CC4)COC5)cc3)cc12")
46.7

Just for reference, ChEMBL document CHEMBL3580561 is where these values come from.
